Molecular target: UniProt:P41595
Sequence (P41595 whole entry, looked up, species assumed): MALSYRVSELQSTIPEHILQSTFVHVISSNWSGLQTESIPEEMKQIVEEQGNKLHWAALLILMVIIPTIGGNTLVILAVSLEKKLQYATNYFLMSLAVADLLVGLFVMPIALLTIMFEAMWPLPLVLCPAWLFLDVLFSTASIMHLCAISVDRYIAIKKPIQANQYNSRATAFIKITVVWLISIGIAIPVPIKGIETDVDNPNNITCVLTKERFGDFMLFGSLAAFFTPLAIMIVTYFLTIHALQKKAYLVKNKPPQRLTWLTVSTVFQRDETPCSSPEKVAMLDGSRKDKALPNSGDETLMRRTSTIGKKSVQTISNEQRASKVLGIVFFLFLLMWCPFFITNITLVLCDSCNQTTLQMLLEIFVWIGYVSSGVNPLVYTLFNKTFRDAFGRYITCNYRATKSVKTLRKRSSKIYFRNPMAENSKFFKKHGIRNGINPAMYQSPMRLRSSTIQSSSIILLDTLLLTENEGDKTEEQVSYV
Test: 5-HT2B agonist and antagonist calcium assay (Calcium NWPLUS, FLIPR)
Parameter: IC50. Scope: all listed entries.
Answer format: numeric, nM implied, no suffix.

>  <SMILES DATA>
CN[C@H](C)Cc1ccc2ccoc2c1

>  <IC50 / nM>
400

$$$$

--- query ---
Query: Entry under review: `CN[C@H](C)Cc1ccc2occc2c1` . Reported IC50?
Response: 360

###

Molecular target: 5-HT1BR (Homo sapiens (Human))
Experiment: 5-HT1BR cAMP secondary messenger agonist assay (HitHunter, CHO-K1)
Format: cell-based
Settings: 5HT1B Agonist (μM)
TRUE if EC50 is below 0.2 µM. FALSE if not; exact matches included in FALSE.

Query: # TODO verify EC50 < 0.2 µM strictly for this compound: CN[C@H](C)Cc1ccc2ccoc2c1 [Compound R-6-MAPB]
Response: FALSE

Query: # TODO verify EC50 < 0.2 µM strictly for this compound: CNC(C)C(=O)c1ccc2occc2c1 (single isomer, unassigned) [Enantiomer 2 BK-5-MAPB]
Response: FALSE

###

Target: 5-HT1BR (Homo sapiens (Human))
Experiment: 5-HT1BR cAMP secondary messenger agonist assay (HitHunter, CHO-K1)
Format: cell-based
Conditions: 5-HT1BR EC50 (μM)
Description: The 5-HT1BR cAMP secondary messenger agonist assay used a panel of CHO-K1 cell lines stably expressing non-tagged GPCRs that endogenously signal through cAMP. Hit Hunter® cAMP assays monitored the activation of a GPCR via Gi and Gs secondary messenger signaling in a homogenous, non-imaging assay format using DiscoverX Enzyme Fragment Complementation (EFC) with β-galactosidase as the functional endpoint. […]
Where a name gives a salt, the structure may show the parent alone.
Satisfied if EC50 is below 1 µM. Not satisfied if not; exact matches included in Not satisfied.

Query: # TODO verify EC50 < 1 µM strictly for this compound: CNC(C)C(=O)c1ccc2occc2c1 (racemic) [rac-BK-5-MAPB, hydrochloride]
Response: Satisfied

Query: # TODO verify EC50 < 1 µM strictly for this compound: CNC(C)C(=O)c1ccc2ccoc2c1 (single isomer, unassigned; (+)) [(+)-BK-6-MAPB]
Response: Not satisfied

Query: # TODO verify EC50 < 1 µM strictly for this compound: CCC(NC)C(=O)c1ccc2occc2c1 (single isomer, unassigned; (-)) [(−)-BK-5-MBPB]
Response: Not satisfied

Query: # TODO verify EC50 < 1 µM strictly for this compound: CCC(NC)C(=O)c1ccc2occc2c1 (racemic) [rac-BK-5-MBPB, hydrochloride]
Response: Not satisfied

Query: # TODO verify EC50 < 1 µM strictly for this compound: `CN[C@@H](C)Cc1ccc2ccoc2c1`
Response: Satisfied

Query: # TODO verify EC50 < 1 µM strictly for this compound: CCC(NC)C(=O)c1ccc2occc2c1 (single isomer, unassigned; (+)) [(+)-BK-5-MBPB]
Response: Not satisfied

Query: # TODO verify EC50 < 1 µM strictly for this compound: CNC(C)C(=O)c1ccc2ccoc2c1 (single isomer, unassigned; (-)) [(−)-BK-6-MAPB]
Response: Satisfied

Query: # TODO verify EC50 < 1 µM strictly for this compound: CNC(C)C(=O)c1ccc2occc2c1 (single isomer, unassigned; (+)) [(+)-BK-5-MAPB]
Response: Not satisfied

Query: # TODO verify EC50 < 1 µM strictly for this compound: CNC(C)C(=O)c1ccc2ccoc2c1 (racemic) [rac-BK-6-MAPB, hydrochloride]
Response: Satisfied

###

Molecular target: SERT (Homo sapiens (Human), UniProt P31645)
Assay: hSERT release assay in CHO cells ([3H]serotonin)
Conditions: read-out: EC50 SERT (Mean ± SEM), CHO cells expressing hSERT
MEASUREMENT NAME: pEC50
Friendly reminder that pEC50 comes from taking -log10 of the concentration in mol/L.

Query: Entry under review: CNC(C)Cc1ccc2occc2c1.Cl (stereo not shown) . Reported pEC50?
Response: 7.05

###

Target: UniProt:Q01959
Experiment: hDAT release assay in CHO cells ([3H]dopamine)
Conditions: EC50 DAT (Mean ± SEM, nM), CHO cells expressing hDAT
MEASUREMENT NAME: EC50 (nM)
Answer format: numeric, nM implied, no suffix.

The following molecules have reported results that may help.
>  <MOLECULE>
CN[C@@H](C)Cc1ccc2occc2c1 [75% S-5-MAPB]

>  <MEASUREMENT NAME>
EC50

>  <READING>
632

$$$$
>  <MOLECULE>
CN[C@H](C)Cc1ccc2occc2c1 [75% R-5-MAPB]

>  <MEASUREMENT NAME>
EC50

>  <READING>
794

$$$$

Query: Entry under review: CN[C@@H](C)Cc1ccc2occc2c1 [Compound S-5-MAPB] . Reported EC50?
Response: 258

###

Parameter: EC50. Scope: all listed entries.
Target: 5-HT1BR (Homo sapiens (Human), UniProt P28222)
Experiment: 5-HT1BR cAMP secondary messenger agonist assay (HitHunter, CHO-K1)
Type: cell-based
Settings: 5HT1B Agonist (μM)

The following molecules have reported results that may help.
>  <MOLECULE>
CN[C@@H](C)Cc1ccc2occc2c1

>  <EC50>
0.16 µM

$$$$
>  <MOLECULE>
CN[C@H](C)Cc1ccc2occc2c1

>  <EC50>
0.98 µM

$$$$
>  <MOLECULE>
CNC(C)C(=O)c1ccc2occc2c1 (single isomer, unassigned) [Enantiomer 1 BK-5-MAPB]

>  <EC50>
0.08 µM

$$$$

Query: Entry under review: `CN[C@@H](C)Cc1ccc2ccoc2c1` . Reported EC50?
Response: 0.1 µM

###

Parameter: EC50. Scope: all listed entries.
Molecular target: 5-HT1BR (Homo sapiens (Human))
Assay: 5-HT1BR cAMP secondary messenger agonist assay (HitHunter, CHO-K1)
Type: cell-based
Conditions: 5-HT1BR EC50 (μM)
Answer format: numeric, µM implied, no suffix.

The following compounds have reported results that may help.
>  <COMPOUND>
CN[C@H](C)Cc1ccc2occc2c1

>  <ASSAY SYSTEM>
5-HT1BR (Homo sapiens (Human))

>  <EC50 (µM)>
0.981

$$$$
>  <COMPOUND>
CN[C@H](C)Cc1ccc2ccoc2c1

>  <ASSAY SYSTEM>
5-HT1BR (Homo sapiens (Human))

>  <EC50 (µM)>
1.48

$$$$
>  <COMPOUND>
CN[C@@H](C)Cc1ccc2occc2c1

>  <ASSAY SYSTEM>
5-HT1BR (Homo sapiens (Human))

>  <EC50 (µM)>
0.161

$$$$
>  <COMPOUND>
CNC(C)C(=O)c1ccc2occc2c1 (single isomer, unassigned; (-)) [(−)-BK-5-MAPB]

>  <ASSAY SYSTEM>
5-HT1BR (Homo sapiens (Human))

>  <EC50 (µM)>
0.0777

$$$$

--- query ---
Query: Entry under review: CCC(NC)C(=O)c1ccc2ccoc2c1 (single isomer, unassigned; (-)) [(−)-BK-6-MBPB] . Reported EC50?
Response: 7.52
